// provenance: PubChem BioAssay AID2060896

- Tested on: 941728-121-R-J1-PDC complex spheroid viability
- method-summary: Anticancer human tumor 941728-121-R-J1-PDC patient-derived lung adenocarcinoma cell line growth inhibition [RAS]
- applied-conditions: second compound 0.01 µM; first compound 0.01 µM; stronger effect = lower value

{"compound": "CCN1CCN(Cc2ccc(Nc3ncc(F)c(-c4cc(F)c5nc(C)n(C(C)C)c5c4)n3)nc2)CC1 + C=CC(=O)N1CCN(c2nc(OCC3CCCN3C)nc3c(F)c(-c4nc(N)cc(C)c4C(F)(F)F)c(Cl)cc23)C(C)C1", "viability, T/C [%]": 18.5}
{"compound": "CC(C)n1nc(-c2ccc3oc(N)nc3c2)c2c(N)ncnc21 + C=CC(=O)N1CCN(c2nc(OCC3CCCN3C)nc3c(F)c(-c4nc(N)cc(C)c4C(F)(F)F)c(Cl)cc23)C(C)C1", "viability, T/C [%]": 14.4}
{"compound": "O=C(c1ccc(F)c(F)c1Nc1ccc(I)cc1F)N1CC(O)([C@@H]2CCCCN2)C1 + C=CC(=O)N1CCN(c2nc(OCC3CCCN3C)nc3c(F)c(-c4nc(N)cc(C)c4C(F)(F)F)c(Cl)cc23)C(C)C1", "viability, T/C [%]": 14.6}
{"compound": "Nc1ccn(C2OC(CO)C(O)C2(F)F)c(=O)n1 (stereo not given) + C=CC(=O)N1CCN(c2nc(OCC3CCCN3C)nc3c(F)c(-c4nc(N)cc(C)c4C(F)(F)F)c(Cl)cc23)C(C)C1", "viability, T/C [%]": 14.7}
{"compound": "C=CC(=O)Nc1cc(Nc2nccc(-c3cn(C)c4ccccc34)n2)c(OC)cc1N(C)CCN(C)C + C=CC(=O)N1CCN(c2nc(OCC3CCCN3C)nc3c(F)c(-c4nc(N)cc(C)c4C(F)(F)F)c(Cl)cc23)C(C)C1", "viability, T/C [%]": 18.3}

---

- Tested on: 941728-121-R-J1-PDC complex spheroid viability
- method-summary: Anticancer human tumor 941728-121-R-J1-PDC cell line growth inhibition [RAS];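 note: spheroids exposed to compounds for 7 days before readout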
- applied-conditions: curve of first compound; second compound 0.003 µM
List of IC50 values.

{"molecule": "CC1(C)CCC(Nc2ncc(C(F)(F)F)c(-c3c[nH]c4c(P(C)(C)=O)c(C#N)ccc34)n2)CN1 (configuration not stated) + CCn1c(-c2cc(N3CCN(C)CC3)cnc2C(C)OC)c2c3cc(ccc31)-c1csc(n1)CC(NC(=O)C1CC1C)C(=O)N1CCCC(N1)C(=O)OCC(C)(C)C2", "IC50": "< 0.949 nM"}
{"molecule": "CCc1c2c(nc3ccc(O)cc13)-c1cc3c(c(=O)n1C2)COC(=O)[C@]3(O)CC + CCn1c(-c2cc(N3CCN(C)CC3)cnc2C(C)OC)c2c3cc(ccc31)-c1csc(n1)CC(NC(=O)C1CC1C)C(=O)N1CCCC(N1)C(=O)OCC(C)(C)C2", "IC50": "< 0.949 nM"}

---

List of viability, T/C values.
- System: 941728-121-R-J1-PDC complex spheroid viability
- method-summary: Anticancer human tumor 941728-121-R-J1-PDC cell line growth inhibition [RAS];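 note: spheroids exposed to compounds for 7 days before readout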;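 for viability, T/C: 100% = DMSO vehicle control viability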
- applied-conditions: second compound 0.000949 µM; first compound 1 µM; stronger effect = lower value

{"molecule": "O=C(c1ccc(F)c(F)c1Nc1ccc(I)cc1F)N1CC(O)([C@@H]2CCCCN2)C1 + CCn1c(-c2cc(N3CCN(C)CC3)cnc2C(C)OC)c2c3cc(ccc31)-c1csc(n1)CC(NC(=O)C1CC1C)C(=O)N1CCCC(N1)C(=O)OCC(C)(C)C2", "viability, T/C, %": 8.5}
{"molecule": "CCC(CC)c1cc(NC2CCC(N)C2)n2nccc2n1 (stereo not drawn) + CCn1c(-c2cccnc2C(C)OC)c2c3cc(ccc31)N1CCOC(CC(NC(=O)C(C(C)C)N(C)C(=O)C3(F)CCN(C(=O)C#CC(C)(C)N(C)C)CC3)C(=O)N3CCCC(N3)C(=O)OCC(C)(C)C2)C1", "viability, T/C, %": 31.1}
{"molecule": "C=CC(=O)N1CCN(c2nc(OCC3CCCN3C)nc3c(F)c(-c4nc(N)cc(C)c4C(F)(F)F)c(Cl)cc23)C(C)C1 (stereo not drawn) + CCn1c(-c2cc(N3CCN(C)CC3)cnc2C(C)OC)c2c3cc(ccc31)-c1csc(n1)CC(NC(=O)C1CC1C)C(=O)N1CCCC(N1)C(=O)OCC(C)(C)C2", "viability, T/C, %": 16.2}
{"molecule": "CC1(O)CCCC1n1c(=O)c(C(F)F)cc2cnc(NC3CCN(S(C)(=O)=O)CC3)nc21 (stereo not drawn) + CCn1c(-c2cc(N3CCN(C)CC3)cnc2C(C)OC)c2c3cc(ccc31)-c1csc(n1)CC(NC(=O)C1CC1C)C(=O)N1CCCC(N1)C(=O)OCC(C)(C)C2", "viability, T/C, %": 38.3}
{"molecule": "Cc1nc(N2CCC3(CC2)COC(C)C3N)c(CO)nc1Sc1ccnc(N)c1Cl (stereo not drawn) + CCn1c(-c2cc(N3CCN(C)CC3)cnc2C(C)OC)c2c3cc(ccc31)-c1csc(n1)CC(NC(=O)C1CC1C)C(=O)N1CCCC(N1)C(=O)OCC(C)(C)C2", "viability, T/C, %": 19.2}
{"molecule": "CCN1CCN(Cc2ccc(Nc3ncc(F)c(-c4cc(F)c5nc(C)n(C(C)C)c5c4)n3)nc2)CC1 + CCn1c(-c2cccnc2C(C)OC)c2c3cc(ccc31)N1CCOC(CC(NC(=O)C(C(C)C)N(C)C(=O)C3(F)CCN(C(=O)C#CC(C)(C)N(C)C)CC3)C(=O)N3CCCC(N3)C(=O)OCC(C)(C)C2)C1", "viability, T/C, %": 12.2}
{"molecule": "CCC(CC)c1cc(NC2CCC(N)C2)n2nccc2n1 (stereo not drawn) + CCn1c(-c2cc(N3CCN(C)CC3)cnc2C(C)OC)c2c3cc(ccc31)-c1csc(n1)CC(NC(=O)C1CC1C)C(=O)N1CCCC(N1)C(=O)OCC(C)(C)C2", "viability, T/C, %": 32.5}
{"molecule": "C=CC(=O)N1CCN(c2nc(OCC3CCCN3C)nc3c(F)c(-c4nc(N)cc(C)c4C(F)(F)F)c(Cl)cc23)C(C)C1 (stereo not drawn) + CCn1c(-c2cccnc2C(C)OC)c2c3cc(ccc31)N1CCOC(CC(NC(=O)C(C(C)C)N(C)C(=O)C3(F)CCN(C(=O)C#CC(C)(C)N(C)C)CC3)C(=O)N3CCCC(N3)C(=O)OCC(C)(C)C2)C1", "viability, T/C, %": 19.9}

---

- System: 941728-121-R-J1-PDC complex spheroid viability
- method-summary: Anticancer human tumor 941728-121-R-J1-PDC cell line growth inhibition [RAS];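 note: spheroids exposed to compounds for 7 days before readout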;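 for viability, T/C: 100% = DMSO vehicle control viability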
- applied-conditions: second compound 0.03 µM; first compound 0.0316 µM; stronger effect = lower value

{"compound": "Nc1ccn(C2OC(CO)C(O)C2(F)F)c(=O)n1 (stereo not drawn) + CCn1c(-c2cc(N3CCN(C)CC3)cnc2C(C)OC)c2c3cc(ccc31)-c1csc(n1)CC(NC(=O)C1CC1C)C(=O)N1CCCC(N1)C(=O)OCC(C)(C)C2", "viability, T/C (%)": 10.8}
{"compound": "NC1c2ccccc2OC12CCN(c1cnc3c(N4CCCc5ncccc54)n[nH]c3n1)CC2 (stereo not drawn) + CCn1c(-c2cccnc2C(C)OC)c2c3cc(ccc31)N1CCOC(CC(NC(=O)C(C(C)C)N(C)C(=O)C3(F)CCN(C(=O)C#CC(C)(C)N(C)C)CC3)C(=O)N3CCCC(N3)C(=O)OCC(C)(C)C2)C1", "viability, T/C (%)": 19.2}
{"compound": "CCC(CC)c1cc(NC2CCC(N)C2)n2nccc2n1 (stereo not drawn) + CCn1c(-c2cccnc2C(C)OC)c2c3cc(ccc31)N1CCOC(CC(NC(=O)C(C(C)C)N(C)C(=O)C3(F)CCN(C(=O)C#CC(C)(C)N(C)C)CC3)C(=O)N3CCCC(N3)C(=O)OCC(C)(C)C2)C1", "viability, T/C (%)": 23}

---

- Test system: 941728-121-R-J1-PDC complex spheroid viability
- method-summary: Anticancer human tumor 941728-121-R-J1-PDC cell line growth inhibition [RAS];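 note: spheroids exposed to compounds for 7 days before readout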
- applied-conditions: curve of first compound; second compound 0.3 µM
parameter: IC50

{"compound": "CCc1c2c(nc3ccc(O)cc13)-c1cc3c(c(=O)n1C2)COC(=O)[C@]3(O)CC + CCn1c(-c2cccnc2C(C)OC)c2c3cc(ccc31)N1CCOC(CC(NC(=O)C(C(C)C)N(C)C(=O)C3(F)CCN(C(=O)C#CC(C)(C)N(C)C)CC3)C(=O)N3CCCC(N3)C(=O)OCC(C)(C)C2)C1", "parameter": "IC50", "experimental-result": "< 0.949 nM"}
{"compound": "CC(C)n1nc(-c2ccc3oc(N)nc3c2)c2c(N)ncnc21 + CCn1c(-c2cccnc2C(C)OC)c2c3cc(ccc31)N1CCOC(CC(NC(=O)C(C(C)C)N(C)C(=O)C3(F)CCN(C(=O)C#CC(C)(C)N(C)C)CC3)C(=O)N3CCCC(N3)C(=O)OCC(C)(C)C2)C1", "parameter": "IC50", "experimental-result": "< 0.316 nM"}
{"compound": "Cc1nc(N2CCC3(CC2)COC(C)C3N)c(CO)nc1Sc1ccnc(N)c1Cl (centres undefined) + CCn1c(-c2cc(N3CCN(C)CC3)cnc2C(C)OC)c2c3cc(ccc31)-c1csc(n1)CC(NC(=O)C1CC1C)C(=O)N1CCCC(N1)C(=O)OCC(C)(C)C2", "parameter": "IC50", "experimental-result": "< 31.6 nM"}
{"compound": "CC(Nc1ccc2c(c1)OCCn1cc(N3C(=O)OCC3C(F)F)nc1-2)C(N)=O (centres undefined) + CCn1c(-c2cc(N3CCN(C)CC3)cnc2C(C)OC)c2c3cc(ccc31)-c1csc(n1)CC(NC(=O)C1CC1C)C(=O)N1CCCC(N1)C(=O)OCC(C)(C)C2", "parameter": "IC50", "experimental-result": "< 31.6 nM"}
